B1: Azoarcus group I ribozyme (parent)
chain: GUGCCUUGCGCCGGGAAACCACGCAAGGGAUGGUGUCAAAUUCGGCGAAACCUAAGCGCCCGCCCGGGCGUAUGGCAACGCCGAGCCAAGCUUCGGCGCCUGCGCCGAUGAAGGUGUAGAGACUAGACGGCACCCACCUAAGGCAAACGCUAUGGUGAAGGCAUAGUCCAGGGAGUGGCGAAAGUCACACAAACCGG

Variants of: B1
Test: reverse-splicing fitness (ratio to wild type); higher = more active; in vitro selection; Mg2+ level not given
Kindly return label 1 if reported reverse-splicing fitness is no lower than 0.01; return label 0 if it is lower.

Task: Does reverse-splicing fitness meet or surpass 0.01 for C82G A111U A120G A145G C150G C169G U176C ?
Output: label 1

Task: Does reverse-splicing fitness meet or surpass 0.01 for C82A A111C A120U A145G C150A C169U U176G ?
Output: label 0

Task: Does reverse-splicing fitness meet or surpass 0.01 for C82A A120U C150A C169G ?
Output: label 0

Task: Does reverse-splicing fitness meet or surpass 0.01 for C82A A111C A120U A145G C150A C169U ?
Output: label 0

Task: Does reverse-splicing fitness meet or surpass 0.01 for C82A A111G A120U A145G U176A ?
Output: label 0

Task: Does reverse-splicing fitness meet or surpass 0.01 for C82A A111C A120C A145U C150A C169U ?
Output: label 1

Task: Does reverse-splicing fitness meet or surpass 0.01 for C82A A111C A120G A145G C150G C169U U176A ?
Output: label 1

Task: Does reverse-splicing fitness meet or surpass 0.01 for C150G U176G ?
Output: label 1

Task: Does reverse-splicing fitness meet or surpass 0.01 for C82A A111U A120C A145C C150G C169G ?
Output: label 0

Task: Does reverse-splicing fitness meet or surpass 0.01 for C82G A111G A120U A145G C169A ?
Output: label 0
